Experiment: Cell Viability - LYMP2-006 (AID 978);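 also: cells exposed to compound for 24 hours; nearly all actives have a fitted effect of over 60% in size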
Settings: LYMP2-006 lymphoblastoid cell viability, qHTS; series mostly up to 92.2 µM
Excerpt: NIH Chemical Genomics Center [NCGC] NIH Molecular Libraries Screening Centers Network [MLSCN] National Institutes of Environmental Health Sciences [NIEHS] National Toxicology Program [NTP] We have developed a 1536-well cell-based assay for quantitative high throughput screening (qHTS) against a number of cell lines to determine in vitro cytotoxicity of small molecules. […] 8. Detection; Luminescence; Viewlux plate reader […]
Records with an inconclusive call do not appear. The source made the active and inactive calls. Calls follow the shape of the dose curve; as a rule, active = well fitted cell-killing curve with a large enough effect; inconclusive = small, poorly fitted or top-dose-only effect; inactive = flat fitted curve, though single readings scatter.
Hi! Could you answer with just one of these? active, inactive

The examples below pair each entry with its known result.
O=C(OCC(COC(=O)c1ccccc1)(COC(=O)c1ccccc1)COC(=O)c1ccccc1)c1ccccc1 inactive
CC(=O)Nc1ccc(C(=O)CCl)cc1 active
C=CC(=O)OCCOCCOC(=O)C=C active
C=C(C)c1ccccc1 inactive

Task: Could you check what this test reported for `Nc1ccc2cc3ccccc3cc2c1` ?
Result: inactive

Task: Could you check what this test reported for `O=[N+]([O-])c1cc([N+](=O)[O-])c2ccc(S(=O)(=O)O)cc2c1O` ?
Result: inactive

Task: Could you check what this test reported for `CNc1ccc(O)cc1` ?
Result: active

----------
system: CP256; test: qHTS profiling for inhibitors of Plasmodium falciparum proliferation (AID 504749); also: nearly all actives have a fitted effect of over 60% in size; conditions: P. falciparum in erythrocytes, SYBR Green DNA, 72 h; series mostly up to 28.7 µM
Results filed as inconclusive are left out. Activity calls are given as the source filed them. Calls come from the whole dose curve; as a rule, active = well fitted inhibition curve with a large enough effect; inconclusive = small, poorly fitted or top-dose-only effect; inactive = flat fitted curve, though single readings scatter.
Hi! Could you answer with just one of these? active, inactive

The examples below pair each entry with its known result.
Compound	Answer Label
N#C/C(=C1/SCC(c2ccccc2Cl)S1)n1ccnc1 (centres undefined)	inactive
CC1=C(c2ccc(NN=C(C#N)C#N)cc2)NNC(=O)C1	inactive
CC1OC(OC2C(O)CC(OC3C(O)CC(OC4CCC5(C)C(CCC6C5CCC5(C)C(C7=CC(=O)OC7)CCC65O)C4)OC3C)OC2C)CC(O)C1O (centres undefined)	inactive
CC(c1ncncc1F)[C@](O)(Cn1cncn1)c1ccc(F)cc1F (some centres undefined)	inactive
CCN1CCN(C(=O)NC(C(=O)NC2C(=O)N3C(C(=O)O)=C(CSc4nnnn4C)CSC23)c2ccc(O)cc2)C(=O)C1=O (centres undefined)	inactive
CN(C)CC/C=C1\c2ccccc2COc2ccc(CC(=O)O)cc21	inactive
CC[C@H](C)[C@H]1O[C@]2(CC[C@@H]1C)C[C@@H]1C[C@@H](C/C=C(\C)[C@H](O[C@@H]3C[C@H](OC)[C@H](O[C@@H]4C[C@H](OC)[C@@H](O)[C@H](C)O4)[C@H](C)O3)[C@@H](C)/C=C/C=C3\CO[C@@H]4[C@H](O)C(C)=C[C@@H](C(=O)O1)[C@]34O)O2	active
C[C@@H]1C(SC2Cn3cnc[n+]3C2)=C(C(=O)[O-])N2C(=O)[C@H]([C@@H](C)O)[C@@H]12 (some centres undefined)	inactive
Cc1cn([C@H]2CC(F)[C@@H](CO)O2)c(=O)[nH]c1=O (some centres undefined)	inactive
CC(=O)CC(c1ccccc1)C1C(=O)Oc2ccccc2C1=O (centres undefined)	inactive

Consider the additional compound presented here.
Task: Could you check what this test reported for CC1(C)CC1C(=O)N/C(=C/CCCCSCC(N)C(=O)O)C(=O)O (centres undefined) ?
Result: inactive

Where do these numbers come from? They come from PubChem BioAssay (NCATS).
